system: MDA-MB-231 breast; assay: NCI tumour cell line growth inhibition, 48 h
Measured TGI values are reported for all entries that follow.

Query for MDA-MB-231 breast: what TGI does the record show for COc1cccc(-c2nc(-c3cnccn3)n(Cc3ccccc3)n2)c1 ? > 100 µM

For N#Cc1cnn2ccn(C3OC(COC(=O)c4ccccc4)C(OC(=O)c4ccccc4)C3OC(=O)c3ccccc3)c12 (stereo not drawn) then? > 21.5 µM

For O=C1CSC(N2CCN(c3cccc(Cl)c3)CC2)=N1 then? > 100 µM

----------
test system: ACHN renal; assay: NCI tumour cell line growth inhibition, 48 h
Readout Name: TGI

O=C(O)c1ccc(NS(=O)(=O)Cc2ccccc2)cc1    > 100 µM
C=CC/C(C(=O)OC)=C(/C(=O)OC)N(CCC)CCC    > 100 µM
Cc1c(N2C(=O)/C(=C\c3ccccc3O)N=C2c2ccccc2)c(=O)n(-c2ccccc2)n1C    > 100 µM
CCOC(=O)C1CC(O)C(=O)N1C (stereo not given)    > 100 µM

Data request, read-out TGI, for CC(=O)OCCc1cccnc1/C=N/O > 100 µM

----------
Measured TGI values are reported for all entries that follow.
tested on: NCI-H23 lung; assay: NCI tumour cell line growth inhibition, 48 h
Your answer should be a plain number; it is taken to be in µM.

CCCCCCCCCCCCOC1C(CNCC2OC3OC(C)(C)OC3C2NC(=O)Nc2ccc(C(=O)OCC)cc2)OC2OC(C)(C)OC21 (stereo not drawn)    21.5

// next entry
Query for NCI-H23 lung: what TGI does the record show for COc1cc2c(c(O)c1C)C(=O)C(Cl)=CC2=O ? 25

----------
system: OVCAR-3 ovarian; experiment: NCI tumour cell line growth inhibition, 48 h
Measured TGI values are reported for all entries that follow.
Your answer should be a plain number; it is taken to be in µM.

Data request, read-out TGI, for O=C(O[C@H](/C=C/c1ccccc1)P1(=O)N(Cc2ccccc2)[C@@H]2CCCC[C@H]2N1Cc1ccccc1)c1ccccc1 94.3

For COc1cc([C@@H]2c3cc4c(cc3[C@@H](NC(=O)c3cccc([N+](=O)[O-])c3)C3COC(=O)[C@@H]32)OCO4)cc(OC)c1O (stereo not given in full) then? 27.9

----------
Measured TGI values are reported for all entries that follow.
test system: HOP-62 NSCLC; assay: NCI tumour cell line growth inhibition, 48 h

The following compounds have reported results that may help.
CN(C)c1ccc2c(c1)oc(=O)c1ccccc12    65.6 µM
CN1C(=O)CN(NC(=O)C2=C(O)c3ccc(Br)cc3S(=O)(=O)N2)C1=S    > 100 µM
Cc1c(C(=O)/C=C/c2cccc3ccccc23)[n+](=O)c2ccccc2n1[O-]    29.6 µM
CCN1CCN(c2nc(NCCNc3ccnc4cc(Cl)ccc34)c3ccccc3n2)CC1    6.43 µM
CCOc1ccc(N=C/C=C(\Cl)c2ccc3ccccc3c2)cc1    29.8 µM

Data request, read-out TGI, for CC1=CC=CC(C)(C)CC1(O[Si](C)(C)C)C(F)(F)F (stereo unspecified) > 100 µM

For O=c1nc2c(c(-c3cccc(Cl)c3)[nH]1)COC/C2=C\c1cccc(Cl)c1 then? > 100 µM

For CCn1c(=O)c2c3cc(O)ccc3oc2c2ccc(O)cc21 then? > 100 µM

For CN(C)S(=O)(=O)Nc1ccccn1 then? > 100 µM

For COc1ccc(N=Cc2cc(OC)c(OC)c(OC)c2)cc1 then? > 100 µM

For NCCCC(N)C(=O)O (stereo unspecified) then? > 100 µM

For CC(=O)Nc1ccc(Cl)c(Cl)c1 then? > 100 µM

----------
tested on: KM12 colon; test: NCI tumour cell line growth inhibition, 48 h
Measured TGI values are reported for all entries that follow.

Data request, read-out TGI, for C=CC/C(C(=O)OC)=C(/C(=O)OC)N(CCC)CCC > 100 µM

For COc1ccc(/C=C(/C(=O)O)c2cc(OC)c(OC)c(OC)c2)cc1 then? > 100 µM

For N#Cc1c2c(c(Nc3ccc(F)cc3)n3c1nc1ccccc13)CCC2 then? 23.7 µM

For O=C(O)c1cc(S(=O)(=O)N=NC=C2c3ccccc3N(O)c3ccccc32)ccc1O then? > 100 µM

For CCOC(=O)c1cc(-c2ccc([N+](=O)[O-])cc2)n(-c2ccc(C(=O)O)c(O)c2)c1C then? 11.7 µM

For CN1CCN(C(=S)N(C)C(=O)c2ccc(Cl)cc2)CC1 then? > 100 µM

For CN1C(=O)CN(NC(=O)C2=C(O)c3ccc(Br)cc3S(=O)(=O)N2)C1=S then? > 100 µM

For O=C1CC(c2ccc([N+](=O)[O-])cc2)C2(C(=O)NC(=S)NC2=O)C(c2ccc([N+](=O)[O-])cc2)C1 (stereo not given) then? 36.3 µM

----------
test system: MDA-MB-435; test: NCI tumour cell line growth inhibition, 48 h
Readout Name: TGI

The following compounds have reported results that may help.
O=c1nc2c(c(-c3cccc(Cl)c3)[nH]1)COC/C2=C\c1cccc(Cl)c1    > 100 µM
Cc1ccc(C(=O)Nc2ccc(CP(=O)(O)O)cc2)cc1NC(=O)c1cccc(NC(=O)Nc2cccc(C(=O)Nc3cc(C(=O)Nc4ccc(CP(=O)(O)O)cc4)ccc3C)c2)c1    > 100 µM

Data request, read-out TGI, for COc1ccc2c(c1)C(=O)c1ccccc1C2 > 100 µM

----------
Measured TGI values are reported for all entries that follow.
system: CCRF-CEM leukemia; assay: NCI tumour cell line growth inhibition, 48 h

OC(c1cccc(C(F)(F)F)c1)c1cnccc1NC1CCCCCC1 (configuration not stated)    7.98 µM
COc1cc2c(c(OC)c1OC)-c1ccc(NCc3ccccc3)c(=O)cc1[C@@H](NC(C)=O)CC2    > 100 µM
CCOC(=O)c1cnc2[nH]ccn2c1=O    > 10 µM
CN(C)c1ccc(/C=C2\C[N+](C)(C)C/C(=C\c3ccc(N(C)C)cc3)C2=O)cc1    38.9 µM
Cc1nc2cc(C(F)(F)F)ccc2[nH]c1=O    > 100 µM
O=[N+]([O-])c1ccc(NSc2ccccc2)cc1    > 100 µM
Cc1c(Cl)cccc1Nc1ncccc1C(=O)O    > 100 µM
CCOC(=O)C1C(=O)CC(O)(c2ccccc2)C(C(=O)OCC)C1c1ccc(OC)cc1 (configuration not stated)    79.2 µM

Data request, read-out TGI, for O=C1NC(=O)C2C(=O)NC(=O)C1C2(c1ccccc1)c1ccc(Cl)cc1 (configuration not stated) > 100 µM

For O=C1C(Br)=Cc2c(Cl)sc(Cl)c21 then? > 100 µM

For N#Cc1nc(-c2ccc(F)cc2)oc1S(=O)(=O)N1CCOCC1 then? 7.35 µM

For N#Cc1c(O)c2c(c(O)c1C#N)C(=O)c1ccccc1C2=O then? 5.82 µM

For CCn1c(=O)c2c3cc(O)ccc3oc2c2ccc(O)cc21 then? > 100 µM

For C=CCCCC12CCCc3cccc(c31)NC2=O (configuration not stated) then? > 100 µM

For C[C@@H]1Cc2c([nH]c3ccccc23)[C@@H](c2c(F)cc(/C=C/C(=O)O)cc2F)N1CC(C)(C)F then? 33.8 µM

For O=[n+]1c(CBr)c(CBr)n([O-])c2ccccc21 then? 14.2 µM

For CN=C1NC(=O)/C(=C/c2ccc3ncccc3c2)S1 then? > 25 µM

For CC1=CC=CC(C)(C)CC1(O[Si](C)(C)C)C(F)(F)F (configuration not stated) then? > 100 µM

For O=C(O)CNC(=O)c1ccc([As](=O)(O)O)cc1 then? > 100 µM

For O=C1/C(=C/c2ccc(F)cc2)CNC/C1=C\c1ccc(F)cc1 then? > 100 µM

For COC(=O)C(CC(=O)c1cc2c(cc1I)OCO2)Cc1cc(OC)c(OC)c(OC)c1I (configuration not stated) then? > 100 µM

For COc1ccc(/C=C(/C(=O)O)c2cc(OC)c(OC)c(OC)c2)cc1 then? > 100 µM

----------
Measured TGI values are reported for all entries that follow.
system: OVCAR-8 ovarian; experiment: NCI tumour cell line growth inhibition, 48 h

The following compounds have reported results that may help.
O=C1CCC(NC(=O)c2ccccc2)C(=O)N1 (centres undefined)    > 100 µM
O=[N+]([O-])c1ccc(NSc2ccccc2)cc1    45.6 µM
CC1CC(C#N)=C2NCCCCN2C1=O (centres undefined)    > 100 µM
CCOC(=O)c1cnc2[nH]ccn2c1=O    > 10 µM
Nc1ncnc2c1ncn2C(=O)NC12CC3CC(CC(C3)C1)C2    > 100 µM
O=C1CC(c2ccc([N+](=O)[O-])cc2)C2(C(=O)NC(=S)NC2=O)C(c2ccc([N+](=O)[O-])cc2)C1 (centres undefined)    45.1 µM

Data request, read-out TGI, for COc1nc2c(cc1S(=O)(=O)c1ccccc1)CCc1c-2cnn1-c1ccccc1Cl > 100 µM

For O=C1CSC(N2CCN(c3cccc(Cl)c3)CC2)=N1 then? > 100 µM

For COc1ccc(CNC(=O)COc2ccc(/C=N/Nc3nc4ccccc4s3)cc2)cc1 then? > 100 µM

For CC1=CC=CC(C)(C)CC1(O[Si](C)(C)C)C(F)(F)F (centres undefined) then? > 100 µM

For CC1=C(CCCOC(=O)NCCCl)C2=C(C)C3(CC3)[C@@](C)(O)C(=O)C2=C1 then? > 100 µM

For COC(=O)c1c(OC)cccc1C(=O)O then? > 100 µM

For Cc1ccc(C(=O)Nc2ccc(CP(=O)(O)O)cc2)cc1NC(=O)c1cccc(NC(=O)Nc2cccc(C(=O)Nc3cc(C(=O)Nc4ccc(CP(=O)(O)O)cc4)ccc3C)c2)c1 then? > 100 µM

For C=CC/C(C(=O)OC)=C(/C(=O)OC)N(CCC)CCC then? > 100 µM
